Numbers sourced from ChEMBL document CHEMBL1152132.

Experiment: Ratio of compound ED50 to paclitaxel ED50 for tubulin assembly
Ratio ED50 listing for selected compounds.

{"columns": ["smi", "Ratio ED50"],
 "data": [
  ["CC(=O)O[C@@]12CO[C@@H]1C[C@H](O)[C@@]1(C)C(=O)[C@H](OC(=O)CCC(=O)N(C)C)C3=C(C)[C@@H](OC(=O)[C@H](O)[C@@H](NC(=O)c4ccccc4)c4ccccc4)C[C@@](O)([C@@H](OC(=O)c4ccccc4)[C@H]21)C3(C)C", 1.6],
  ["CC(=O)O[C@@]12CO[C@@H]1C[C@H](O)[C@@]1(C)C(=O)[C@H](OC(=O)CCCC(=O)N(C)C)C3=C(C)[C@@H](OC(=O)[C@H](O)[C@@H](NC(=O)c4ccccc4)c4ccccc4)C[C@@](O)([C@@H](OC(=O)c4ccccc4)[C@H]21)C3(C)C", 2.2],
  ["CC(=O)O[C@H]1C(=O)[C@]2(C)[C@@H](OC(=O)CCCC(=O)N(C)C)C[C@H]3OC[C@@]3(OC(C)=O)[C@H]2[C@H](OC(=O)c2ccccc2)[C@]2(O)C[C@H](OC(=O)[C@H](O)[C@@H](NC(=O)c3ccccc3)c3ccccc3)C(C)=C1C2(C)C", 0.7],
  ["COC(=O)CCC(=O)O[C@H]1C[C@H]2OC[C@@]2(OC(C)=O)[C@H]2[C@H](OC(=O)c3ccccc3)[C@]3(O)C[C@H](OC(=O)[C@H](O)[C@@H](NC(=O)c4ccccc4)c4ccccc4)C(C)=C([C@@H](OC(C)=O)C(=O)[C@]12C)C3(C)C", 1.2],
  ["CC(=O)O[C@H]1C(=O)[C@]2(C)[C@@H](OC(=O)CCC(N)=O)C[C@H]3OC[C@@]3(OC(C)=O)[C@H]2[C@H](OC(=O)c2ccccc2)[C@]2(O)C[C@H](OC(=O)[C@H](O)[C@@H](NC(=O)c3ccccc3)c3ccccc3)C(C)=C1C2(C)C", 0.6],
  ["CC(=O)O[C@H]1C(=O)[C@]2(C)[C@@H](OC(=O)CCC(=O)N(C)C)C[C@H]3OC[C@@]3(OC(C)=O)[C@H]2[C@H](OC(=O)c2ccccc2)[C@]2(O)C[C@H](OC(=O)[C@H](O)[C@@H](NC(=O)c3ccccc3)c3ccccc3)C(C)=C1C2(C)C", 1.1],
  ["CC(=O)O[C@@]12CO[C@@H]1C[C@H](O)[C@@]1(C)C(=O)[C@H](OC(=O)CCC(=O)O)C3=C(C)[C@@H](OC(=O)[C@H](O)[C@@H](NC(=O)c4ccccc4)c4ccccc4)C[C@@](O)([C@@H](OC(=O)c4ccccc4)[C@H]21)C3(C)C", 1.7],
  ["CC(=O)O[C@H]1C(=O)[C@]2(C)[C@@H](OC(=O)CCC(=O)O)C[C@H]3OC[C@@]3(OC(C)=O)[C@H]2[C@H](OC(=O)c2ccccc2)[C@]2(O)C[C@H](OC(=O)[C@H](O)[C@@H](NC(=O)c3ccccc3)c3ccccc3)C(C)=C1C2(C)C", 3.8],
  ["CC(=O)O[C@@]12CO[C@@H]1C[C@H](O)[C@@]1(C)C(=O)[C@H](OC(=O)CCC(N)=O)C3=C(C)[C@@H](OC(=O)[C@H](O)[C@@H](NC(=O)c4ccccc4)c4ccccc4)C[C@@](O)([C@@H](OC(=O)c4ccccc4)[C@H]21)C3(C)C", 0.4],
  ["CC(=O)O[C@H]1C(=O)[C@]2(C)[C@@H](OC(=O)CCCC(=O)O)C[C@H]3OC[C@@]3(OC(C)=O)[C@H]2[C@H](OC(=O)c2ccccc2)[C@]2(O)C[C@H](OC(=O)[C@H](O)[C@@H](NC(=O)c3ccccc3)c3ccccc3)C(C)=C1C2(C)C", 1],
  ["CC(=O)O[C@@]12CO[C@@H]1C[C@H](O)[C@@]1(C)C(=O)[C@H](OC(=O)CCCC(N)=O)C3=C(C)[C@@H](OC(=O)[C@H](O)[C@@H](NC(=O)c4ccccc4)c4ccccc4)C[C@@](O)([C@@H](OC(=O)c4ccccc4)[C@H]21)C3(C)C", 1.8],
  ["CNC(=O)CCCC(=O)O[C@H]1C[C@H]2OC[C@@]2(OC(C)=O)[C@H]2[C@H](OC(=O)c3ccccc3)[C@]3(O)C[C@H](OC(=O)[C@H](O)[C@@H](NC(=O)c4ccccc4)c4ccccc4)C(C)=C([C@@H](OC(C)=O)C(=O)[C@]12C)C3(C)C", 0.8],
  ["CC(=O)O[C@@]12CO[C@@H]1C[C@H](O)[C@@]1(C)C(=O)[C@H](OC(=O)CCCC(=O)O)C3=C(C)[C@@H](OC(=O)[C@H](O)[C@@H](NC(=O)c4ccccc4)c4ccccc4)C[C@@](O)([C@@H](OC(=O)c4ccccc4)[C@H]21)C3(C)C", 1.8],
  ["COC(=O)CCC(=O)O[C@H]1C(=O)[C@@]2(C)[C@H]([C@H](OC(=O)c3ccccc3)[C@]3(O)C[C@H](OC(=O)[C@H](O)[C@@H](NC(=O)c4ccccc4)c4ccccc4)C(C)=C1C3(C)C)[C@]1(OC(C)=O)CO[C@@H]1C[C@@H]2O", 1],
  ["CNC(=O)CCCC(=O)O[C@H]1C(=O)[C@@]2(C)[C@H]([C@H](OC(=O)c3ccccc3)[C@]3(O)C[C@H](OC(=O)[C@H](O)[C@@H](NC(=O)c4ccccc4)c4ccccc4)C(C)=C1C3(C)C)[C@]1(OC(C)=O)CO[C@@H]1C[C@@H]2O", 1.8],
  ["CNC(=O)CCC(=O)O[C@H]1C(=O)[C@@]2(C)[C@H]([C@H](OC(=O)c3ccccc3)[C@]3(O)C[C@H](OC(=O)[C@H](O)[C@@H](NC(=O)c4ccccc4)c4ccccc4)C(C)=C1C3(C)C)[C@]1(OC(C)=O)CO[C@@H]1C[C@@H]2O", 0.8]
]}
